- Tested on: Nanoluciferase (engineered Oplophorus gracilirostris luciferase)
- measurement.notes: Primary Nanoluciferase (NLuc) qHTS assay for identification of artifact compounds. (AID 1845222);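 note: NLuc secreted into diluted conditioned medium of S16 cells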
- measurement.conditions: NLuc-conditioned medium, Nano-Glo luminescence, 5 min; series mostly up to 54.1 µM
Calls of active or inactive are those of the source. Calls come from the whole dose curve; as a rule, active = well fitted inhibition curve with a large enough effect; inconclusive = small, poorly fitted or top-dose-only effect; inactive = flat fitted curve, though single readings scatter.
metric: activity, negative = inhibition

Cc1onc(-c2c(F)cccc2Cl)c1C(=O)N[C@@H]1C(=O)N2[C@@H]1SC(C)(C)[C@@H]2C(=O)O :: inactive
C[C@H](O)[C@H](O)[C@H]1CNc2nc(N)[nH]c(=O)c2N1 :: inactive
O=C(Nc1ccc2c(c1)CCN(Cc1ncn[nH]1)C2)c1ccccc1-c1ccc(C(F)(F)F)cc1 :: inactive

* * *

- measurement.notes: Cell Viability - HepG2 (AID 433);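 note: cells exposed to compound for 40 hours; potency for ATP loss meaning cytotoxicity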
- measurement.conditions: qHTS
- Text: NIH Chemical Genomics Center [NCGC] NIH Molecular Libraries Screening Centers Network [MLSCN] National Institutes of Environmental Health Sciences [NIEHS] National Toxicology Program [NTP] We have developed a 1536-well cell-based assay for quantitative high throughput screening (qHTS) against a number of cell lines to determine in vitro cytotoxicity of small molecules. […] 8. Detection; Luminescence; Viewlux plate reader […]
Results filed as inconclusive are left out. Calls of active or inactive are those of the source. Calls come from the whole dose curve.
# valid calls are active, inactive; nothing else

A selection of reference data follows.
CCCOC(=O)c1ccc(O)cc1 :: inactive
Nc1nc2ccc([N+](=O)[O-])cc2s1 :: inactive
Nc1ccc([N+](=O)[O-])cc1O :: inactive
O=C(O)c1cc(O)c(O)c(O)c1 :: inactive

Assay outcome for CN1CCC[C@H]1c1cccnc1 : what was it?
inactive

Tell me the recorded outcome of this test for N=C1N=C(N)c2cc3ccccc3cc21 .
active

GET /call?item= C#C[C@]1(O)CC[C@H]2[C@@H]3CCc4cc(O)ccc4[C@H]3CC[C@@]21C returns the recorded outcome of this test.
inactive

* * *

- Test system: ECU
- measurement.notes: qHTS profiling for inhibitors of Plasmodium falciparum proliferation (AID 504749); note: nearly all actives have a fitted effect of over 60% in size
- measurement.conditions: P. falciparum in erythrocytes, SYBR Green DNA, 72 h; series mostly up to 28.7 µM
Records with an inconclusive call do not appear. Active and inactive are the calls of the source. The call rests on the fitted dose curve; in most records, active means well fitted inhibition curve with a large enough effect; inconclusive means small, poorly fitted or top-dose-only effect; inactive means flat fitted curve, though single readings scatter.
Outcome (select one): Y (active), N (inactive)

Examples from the recorded data:
c1ccc2sc(SSc3nc4ccccc4s3)nc2c1 :: N
CCC1C(=O)OCC1Cc1cncn1C (stereo not drawn) :: N
C=CC(N)CCC(=O)O (stereo not drawn) :: N
O=C(O)c1cc(O)c(O)c(O)c1 :: N
[O-][n+]1ccccc1SSc1cccc[n+]1[O-] :: Y
Nc1ccc(O)c(C(=O)O)c1 :: N
COc1cc2c3cc1Oc1cc(ccc1O)C[C@@H]1c4c(cc(OC)c(O)c4Oc4ccc(cc4)C[C@@H]3N(C)CC2)CC[N+]1(C)C :: N

Would you kindly look at the next entry?
Just curious, what result did O=C(OCc1ccccc1)c1ccccc1 get here?
N

* * *

- study.system: Papain (Carica papaya)
- measurement.notes: Primary qHTS assay for inhibitors of the protease papain (AID 1645873);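 note: papain turnover of Z-FR-AMC read as the AMC fluorescence gain over 10 min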
- measurement.conditions: papain Z-FR-AMC cleavage, AMC fluorescence; series mostly up to 49.8 µM
Records with an inconclusive call do not appear. The source made the active and inactive calls. Calls come from the whole dose curve; as a rule, active = well fitted inhibition curve with a large enough effect; inconclusive = small, poorly fitted or top-dose-only effect; inactive = no such curve, though single readings can be large or run the other way.
A correct response names exactly one class from true for active, false for inactive

For orientation, consider the following solved cases.
CCCCCCCCCCCCCCCCCC(=O)OC(CC(=O)O)C[N+](C)(C)C (centres undefined) :: false
CN(C)CCC(c1ccc(Cl)cc1)c1ccccn1 (centres undefined) :: false
Cn1c(=O)c2[nH]c(-c3ccccc3)nc2n(C)c1=O :: false
NC(CCCP(=O)(O)O)C(=O)O (centres undefined) :: false
O=C(O)CCCC[C@@H]1CCSS1 :: false
CCN(CC)c1ncnc2c1ncn2[C@@H]1O[C@H](COP(=O)(O)OP(=O)(O)C(Br)(Br)P(=O)(O)O)[C@@H](O)[C@H]1O :: false

I'd appreciate the recorded outcome for Brc1cc2c(cc1[C@H]1Nc3ccccc3[C@H]3C=CC[C@H]31)OCO2 from this test.
false

# outcome recorded in this test, key = N[C@H](CCCP(=O)(O)O)C(=O)O
false

What outcome does the record of this test show for CN(C)c1nc(N)c(C(=O)N=C(N)N)nc1Cl ?
false

Tell me the recorded outcome of this test for Oc1ccc(C2CNCc3sccc32)cc1O (centres undefined) .
false

Hi team, can someone confirm the assay call for CC(=O)/C=C1\C(=O)N(C)c2ccccc21 ?
false
